Each record here notes measured MC4R selectivity vs MC3R.
- EXPERIMENTAL_SYSTEM: human MC4R receptor (human, UniProt P32245 1-332)
- Sequence (P32245 whole entry): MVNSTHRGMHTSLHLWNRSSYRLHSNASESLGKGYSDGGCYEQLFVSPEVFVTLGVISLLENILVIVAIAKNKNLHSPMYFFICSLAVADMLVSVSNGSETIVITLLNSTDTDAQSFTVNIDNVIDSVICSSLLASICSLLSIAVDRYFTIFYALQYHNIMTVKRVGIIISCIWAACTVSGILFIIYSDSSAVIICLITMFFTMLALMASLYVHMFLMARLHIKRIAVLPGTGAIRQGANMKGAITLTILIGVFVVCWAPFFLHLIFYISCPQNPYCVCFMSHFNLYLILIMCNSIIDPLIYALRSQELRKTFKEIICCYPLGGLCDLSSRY
- PROCEDURE_SUMMARY: cell-based or functional assay
Positions of bridges follow the written chain, without caps; N, C: chain ends. Non-standard residues stand in square brackets, D forms with d. Cit = NC(=O)NCCC[C@H](N)C(=O)O; Nle = CCCC[C@H](N)C(=O)O
// return a plain number; no unit text

Recorded MC4R selectivity vs MC3R, per entry:
BINDER	OBSERVED_RESULT
Ac-CG[Cit][dF]RFC-NH2 (disulfide 1-7; SMILES CC(=O)N[C@H]1CSSC[C@@H](C(N)=O)NC(=O)[C@H](Cc2ccccc2)NC(=O)[C@H](CCCNC(=N)N)NC(=O)[C@@H](Cc2ccccc2)NC(=O)[C@H](CCCNC(N)=O)NC(=O)CNC1=O) [CTX-1639]	2.82
Ac-C[dA]R[dF]RWC-NH2 (disulfide 1-7; SMILES CC(=O)N[C@H]1CSSC[C@@H](C(N)=O)NC(=O)[C@H](Cc2c[nH]c3ccccc23)NC(=O)[C@H](CCCNC(=N)N)NC(=O)[C@@H](Cc2ccccc2)NC(=O)[C@H](CCCNC(=N)N)NC(=O)[C@@H](C)NC1=O) [CTX-1627]	2.47

As a next step, examine the binder that follows.
Q: # lookup: MC4R selectivity vs MC3R of Ac-R[Nle]C[Cit]FRWC-NH2 (disulfide 3-8; SMILES CCCC[C@H](NC(=O)[C@H](CCCNC(=N)N)NC(C)=O)C(=O)N[C@H]1CSSC[C@@H](C(N)=O)NC(=O)[C@H](Cc2c[nH]c3ccccc23)NC(=O)[C@H](CCCNC(=N)N)NC(=O)[C@H](Cc2ccccc2)NC(=O)[C@H](CCCNC(N)=O)NC1=O) [CTX-1609]
Result: 4.72

The values you see were collected from patent US20240391954A1.
